- TESTED TARGET: Oxysterols receptor LXR-alpha (Homo sapiens)
- Sequence (Q13133 whole entry, the tested form may be a part): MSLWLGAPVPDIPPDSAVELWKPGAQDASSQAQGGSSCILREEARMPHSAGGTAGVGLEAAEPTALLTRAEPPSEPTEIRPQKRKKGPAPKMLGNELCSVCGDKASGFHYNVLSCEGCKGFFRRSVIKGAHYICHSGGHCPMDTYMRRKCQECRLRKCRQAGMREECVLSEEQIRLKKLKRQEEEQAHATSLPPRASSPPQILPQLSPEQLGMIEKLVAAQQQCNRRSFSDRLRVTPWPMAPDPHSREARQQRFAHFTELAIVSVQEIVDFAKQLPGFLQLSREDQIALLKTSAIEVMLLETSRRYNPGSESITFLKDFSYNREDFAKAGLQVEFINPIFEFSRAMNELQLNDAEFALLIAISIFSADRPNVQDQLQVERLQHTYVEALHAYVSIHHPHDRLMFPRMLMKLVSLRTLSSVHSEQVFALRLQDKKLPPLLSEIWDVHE
- ASSAY PROTOCOL: Agonist activity at LXRalpha-LBD expressed in HEK293 cells assessed as Gal4-DBD interaction by cellular mammalian one hybrid assay
- Format: functional, cell-based
pEC50: −log10 of the molar value.

# CHEMICAL SMILES, pEC50
measured = [
    ("CN(Cc1ccc(C(=O)O)cc1)c1ccc(OCc2c(-c3c(Cl)cccc3Cl)noc2C2CC2)nc1C(F)(F)F", "< 5.00"),
    ("CC(C)c1onc(-c2c(Cl)cccc2Cl)c1COc1ccc(N(C)Cc2ccc(C(=O)O)cc2)c(C(F)(F)F)n1", "< 5.00"),
    ("CN(Cc1cccc(C(=O)O)c1)c1ccc(OCc2c(-c3c(Cl)cccc3Cl)noc2C2CC2)nc1C(F)(F)F", "< 5.00"),
]

###

- ASSAY PROTOCOL: Plasma concentration in db/db mouse at 5 mg/kg, po after 30 mins
- Assay type: ADME, organism-based
- Set-up: dose 5 mg/kg, route oral
- DETAILS: read-out: Drug uptake
OBSERVED PROPERTY: concentration at 0.5 h (ng/mL)

# CHEMICAL SMILES, OBSERVED PROPERTY, EXPERIMENTAL VALUE
records = [
    ("CC(C)c1onc(-c2c(Cl)cccc2Cl)c1COc1ccc(N(C)Cc2ccc(C(=O)O)cc2)c(C(F)(F)F)n1", "concentration at 0.5 h", 420),
    ("CN(Cc1ccc(C(=O)NCCS(=O)(=O)O)cc1)c1ccc(OCc2c(-c3c(Cl)cccc3Cl)noc2C2CC2)nc1C(F)(F)F", "concentration at 0.5 h", 6),
    ("CN(Cc1ccc(C(=O)O)cc1)c1ccc(OCc2c(-c3c(Cl)cccc3Cl)noc2C2CC2)nc1C(F)(F)F", "concentration at 0.5 h", 531),
]

###

Each entry below lists one item and its recorded concentration at 4 h value.
- ASSAY PROTOCOL: Plasma concentration in db/db mouse at 5 mg/kg, po after 240 mins
- Format: ADME, organism-based
- Set-up: dose 5 mg/kg, route oral
- DETAILS: read-out: Drug uptake

# CHEMICAL SMILES, concentration at 4 h, ng/mL
measured = [
    ("CC(C)c1onc(-c2c(Cl)cccc2Cl)c1COc1ccc(N(C)Cc2ccc(C(=O)O)cc2)c(C(F)(F)F)n1", 14),
    ("CN(Cc1ccc(C(=O)O)cc1)c1ccc(OCc2c(-c3c(Cl)cccc3Cl)noc2C2CC2)nc1C(F)(F)F", 52),
]

###

- TESTED TARGET: Peroxisome proliferator-activated receptor alpha (Homo sapiens)
- Sequence (Q07869 whole entry, the tested form may be a part): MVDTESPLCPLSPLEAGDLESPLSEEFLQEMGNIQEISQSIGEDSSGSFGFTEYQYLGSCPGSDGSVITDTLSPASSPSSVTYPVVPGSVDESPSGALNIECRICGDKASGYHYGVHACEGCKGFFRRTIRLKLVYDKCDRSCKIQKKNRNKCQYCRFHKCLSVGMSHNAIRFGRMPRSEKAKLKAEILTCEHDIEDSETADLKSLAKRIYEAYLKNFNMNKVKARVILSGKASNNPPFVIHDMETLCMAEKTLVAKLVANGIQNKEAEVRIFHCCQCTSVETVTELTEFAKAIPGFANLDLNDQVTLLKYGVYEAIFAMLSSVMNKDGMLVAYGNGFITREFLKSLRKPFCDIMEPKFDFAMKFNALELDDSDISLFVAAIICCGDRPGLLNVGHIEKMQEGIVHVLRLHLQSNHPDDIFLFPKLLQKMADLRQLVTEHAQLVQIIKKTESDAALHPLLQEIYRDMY
- ASSAY PROTOCOL: Agonist activity at PPARalpha-LBD expressed in HEK293 cells assessed as Gal4-DBD interaction by cellular mammalian one hybrid assay

# CHEMICAL SMILES, EC50
measured = [
    ("CN(Cc1ccc(C(=O)O)cc1)c1ccc(OCc2c(-c3c(Cl)cccc3Cl)noc2C2CC2)nc1C(F)(F)F", "> 10 µM"),
    ("CC(C)c1onc(-c2c(Cl)cccc2Cl)c1COc1ccc(N(C)Cc2ccc(C(=O)O)cc2)c(C(F)(F)F)n1", "> 10 µM"),
]

###

Each entry below lists one item and its recorded Efficacy value.
- TESTED TARGET: Bile acid receptor (Homo sapiens)
- ASSAY PROTOCOL: Agonist activity at human GST-fused FXR LBD assessed as cofactor peptide interaction with receptor ligand binding domain by FRET assay relative to GW-4064
OBSERVED PROPERTY: Efficacy (%)

# MOLECULE, EXPERIMENTAL VALUE
measured = [
    ("CC(C)c1onc(-c2c(Cl)cccc2Cl)c1COc1ccc(N(C)Cc2ccc(C(=O)NS(C)(=O)=O)cc2)c(C(F)(F)F)n1", 105),
    ("CN(Cc1ccc(C(=O)NCCS(=O)(=O)O)cc1)c1ccc(OCc2c(-c3c(Cl)cccc3Cl)noc2C2CC2)nc1C(F)(F)F", 105),
    ("CC(C)c1onc(-c2c(Cl)cccc2Cl)c1COc1ccc(NCc2ccc(C(=O)O)cc2)c(C(F)(F)F)n1", 97),
    ("CC(C)c1onc(-c2c(Cl)cccc2Cl)c1COc1ccc(N(C)C(=O)c2cccc(C(=O)O)c2)c(C(F)(F)F)n1", 110),
    ("CC(C)c1onc(-c2c(Cl)cccc2Cl)c1COc1ccc(N(C)Cc2cccc(C(=O)O)c2)c(C(F)(F)F)n1", 102),
    ("Cc1nc(OCc2c(-c3c(Cl)cccc3Cl)noc2C(C)C)ccc1N(C)C(=O)c1ccc(C(=O)O)cc1", 95),
    ("CC(C)c1onc(-c2c(Cl)cccc2Cl)c1COc1ccc(N(C)Cc2ccc(CCC(=O)O)cc2)c(C(F)(F)F)n1", 96),
    ("CC(Nc1ccc(C(=O)O)cc1)c1ccc(OCc2c(-c3c(Cl)cccc3Cl)noc2C2CC2)nc1C(F)(F)F (configuration not stated)", 99),
    ("CC(C)c1onc(-c2c(Cl)cccc2Cl)c1COc1cnc(N(C)Cc2cccc(C(=O)O)c2)c(Cl)c1", 105),
    ("CN(Cc1ccc(C(=O)O)cc1)c1ccc(OCc2c(-c3c(Cl)cccc3Cl)noc2C2CC2)nc1C(F)(F)F", 109),
    ("CC(C)c1onc(-c2c(Cl)cccc2Cl)c1COc1ccc(N(C)Cc2ccc(OCCO)cc2)c(C(F)(F)F)n1", 87),
    ("CC(Oc1cccc(C(=O)O)c1)c1ccc(OCc2c(-c3c(Cl)cccc3Cl)noc2C2CC2)nc1C(F)(F)F (configuration not stated)", 102),
    ("CC(C)c1onc(-c2c(Cl)cccc2Cl)c1COc1ccc(N(C)Cc2ccc(OCC(=O)O)cc2)c(C(F)(F)F)n1", 90),
    ("CC(Oc1ccc(C(=O)O)cc1)c1ccc(OCc2c(-c3c(Cl)cccc3Cl)noc2C2CC2)nc1C(F)(F)F (configuration not stated)", 89),
    ("CN(Cc1cccc(C(=O)O)c1)c1ccc(OCc2c(-c3c(Cl)cccc3Cl)noc2C2CC2)nc1C(F)(F)F", 102),
    ("Cc1cc(OCc2c(-c3c(Cl)cccc3Cl)noc2C(C)C)nc2ccccc12", 104),
    ("Cc1cc(OCc2c(-c3c(Cl)cccc3Cl)noc2C(C)C)ncc1[N+](=O)[O-]", 101),
]

###

Each entry below lists one item and its recorded EC50 value.
- TESTED TARGET: Bile acid receptor (Homo sapiens, UniProt Q96RI1)
- Sequence (Q96RI1 whole entry, the tested form may be a part): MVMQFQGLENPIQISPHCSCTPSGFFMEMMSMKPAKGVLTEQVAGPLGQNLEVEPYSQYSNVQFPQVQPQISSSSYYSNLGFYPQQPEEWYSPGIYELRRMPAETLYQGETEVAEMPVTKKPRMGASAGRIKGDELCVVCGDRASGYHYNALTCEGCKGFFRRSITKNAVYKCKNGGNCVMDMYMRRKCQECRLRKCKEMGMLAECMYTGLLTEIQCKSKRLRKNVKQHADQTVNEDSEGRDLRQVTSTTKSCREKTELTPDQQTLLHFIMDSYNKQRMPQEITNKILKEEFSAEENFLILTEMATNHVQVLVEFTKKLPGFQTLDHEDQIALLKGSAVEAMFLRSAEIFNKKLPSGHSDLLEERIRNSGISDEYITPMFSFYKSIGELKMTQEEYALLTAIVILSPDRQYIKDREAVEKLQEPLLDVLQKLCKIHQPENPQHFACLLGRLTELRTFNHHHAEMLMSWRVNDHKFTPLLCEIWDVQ
- ASSAY PROTOCOL: Agonist activity at human full length FXR transfected in HEK293 cells coexpressing pTRexDest/pGL2promotor assessed as luciferase activity by direct reporter cellular assay
- Format: functional, cell-based
- DETAILS: read-out: EC50

# CHEMICAL SMILES, EC50 [nM]
rows = [
    ("CN(Cc1ccc(C(=O)O)cc1)c1ccc(OCc2c(-c3c(Cl)cccc3Cl)noc2C2CC2)nc1C(F)(F)F", 6),
    ("CC(C)c1onc(-c2c(Cl)cccc2Cl)c1COc1ccc(N(C)C(=O)c2cccc(C(=O)O)c2)c(C(F)(F)F)n1", 537),
    ("CC(C)c1onc(-c2c(Cl)cccc2Cl)c1COc1cnc(N(C)Cc2ccc(C(=O)O)cc2)c(Cl)c1", 120),
    ("O=C(O)c1ccc(OCc2ccc(OCc3c(-c4c(Cl)cccc4Cl)noc3C3CC3)nc2C(F)(F)F)cc1", 38),
    ("CC(C)c1onc(-c2c(Cl)cccc2Cl)c1COc1ccc(N(C)Cc2ccc(OCCO)cc2)c(C(F)(F)F)n1", 155),
    ("CC(C)c1onc(-c2c(Cl)cccc2Cl)c1COc1ccc(NC(=O)c2ccc(C(=O)O)cc2)c(C(F)(F)F)n1", 385),
    ("Cc1cc(OCc2c(-c3c(Cl)cccc3Cl)[n-][o+]c2C(C)C)ncc1[N+](=O)[O-]", 1140),
    ("CN(Cc1cccc(C(=O)O)c1)c1ccc(OCc2c(-c3c(Cl)cccc3Cl)noc2C2CC2)nc1C(F)(F)F", 2),
    ("CC(C)c1onc(-c2c(Cl)cccc2Cl)c1COc1ccc(N(C)Cc2ccc(CCC(=O)O)cc2)c(C(F)(F)F)n1", 16),
    ("CC(C)c1onc(-c2c(Cl)cccc2Cl)c1COc1cnc(N(C)Cc2cccc(C(=O)O)c2)c(Cl)c1", 61),
    ("O=C(O)c1cccc(OCc2ccc(OCc3c(-c4c(Cl)cccc4Cl)noc3C3CC3)nc2C(F)(F)F)c1", 33),
    ("CC(C)c1onc(-c2c(Cl)cccc2Cl)c1COc1ccc(N(C)Cc2ccc(OCC(=O)O)cc2)c(C(F)(F)F)n1", 19),
    ("CC(C)c1onc(-c2c(Cl)cccc2Cl)c1COc1ccc(N(C)Cc2ccc(C(=O)O)cc2)c(C(F)(F)F)n1", 15),
    ("Cc1nc(OCc2c(-c3c(Cl)cccc3Cl)noc2C(C)C)ccc1N(C)C(=O)c1ccc(C(=O)O)cc1", 1190),
    ("Cc1cc(OCc2c(-c3c(Cl)cccc3Cl)noc2C(C)C)nc2ccccc12", 878),
    ("CC(C)c1onc(-c2c(Cl)cccc2Cl)c1COc1ccc(NCc2ccc(C(=O)O)cc2)c(C(F)(F)F)n1", 101),
    ("CC(C)c1onc(-c2c(Cl)cccc2Cl)c1COc1ccc(N(C)Cc2ccc(C(=O)NS(C)(=O)=O)cc2)c(C(F)(F)F)n1", 11),
]
